# Tested on: mAb CHO-131
# experiment.notes: Glycan microarray analysis (Consortium for Functional Glycomics, printed array version 4.0), glycan binding of mAb CHO-131
# settings: mAb CHO-131 at 50 μg/ml; average RFU of 6 replicates after removal of highest and lowest values
Exercise: for every item that follows, state its recorded RFU.
Numbers only; they are read as RFU.

RFU lookup needed for CC(=O)N[C@H]1[C@H](OCCCN)O[C@H](COS(=O)(=O)O)[C@@H](O[C@@H]2O[C@H](CO)[C@H](O)[C@H](O[C@]3(C(=O)O)C[C@H](O)[C@@H](NC(C)=O)[C@H]([C@H](O)[C@H](O)CO)O3)[C@H]2O)[C@@H]1O[C@@H]1O[C@@H](C)[C@@H](O)[C@@H](O)[C@@H]1O , thanks.
256

Query (compound): CC(=O)NC1C(O)CC(OC2C(O)C(CO)OC(OC3C(CO)OC(OC4C(O)C(CO)OC(OCCCN)C4O)C(NC(C)=O)C3OC3OC(C)C(O)C(O)C3O)C2O)(C(=O)O)OC1C(O)C(O)CO (stereo not shown) ; field requested: RFU
33335

Sample CC(=O)NC1C(O)CC(OC2C(O)C(CO)OC(OC3C(CO)OC(OCCN)C(NC(C)=O)C3OC3OC(C)C(O)C(O)C3O)C2O)(C(=O)O)OC1C(O)C(O)CO (stereo not shown) — what was its RFU?
20068

Consider the compound shown here: NCCCO[C@@H]1O[C@H](C(=O)O)[C@@H](O)[C@H](O)[C@H]1O What is its recorded RFU?
274

Name the recorded RFU for C[C@@H]1O[C@@H](O[C@H]2[C@H](O[C@@H]3O[C@H](CO)[C@H](O)[C@H](O)[C@H]3O)[C@@H](COS(=O)(=O)O)OC(OCCN)[C@@H]2O)[C@@H](O)[C@H](O)[C@@H]1O (stereo partly shown) .
138

Tell me the measured RFU of CC(=O)NC1C(OCCCN)OC(CO)C(OC2OC(CO)C(O)C(OC3OC(CO)C(OC4OC(CO)C(O)C(OC5(C(=O)O)CC(O)C(NC(C)=O)C(C(O)C(O)CO)O5)C4O)C(OC4OC(C)C(O)C(O)C4O)C3NC(C)=O)C2O)C1O (stereo not shown) , please.
24587

Consider the compound NCCCO[C@H]1O[C@H](C(=O)O)[C@@H](O)[C@H](O)[C@H]1O and give its measured RFU.
227

----------
# System: mAb CHO-131
# experiment.notes: Glycan microarray analysis (Consortium for Functional Glycomics, printed array version 4.0), glycan binding of mAb CHO-131
# settings: mAb CHO-131 at 50 μg/ml; average RFU of 6 replicates after removal of highest and lowest values
# Protocol: mAb CHO-131 was purchased from R&D Systems (MAB996). mAb CSLEX was purchased form BD Biosciences (551344). Glycan microarray analysis was carried out by the Consortium for Functional Glycomics. Glycan microarrays were printed as described (Blixt 2004). Version 4.0 of the printed glycan array was used for analysis. Binding analysis was performed at 50 μg/ml of antibody. Data are reported as average RFU of 6 replicates after removal of highest and lowest values.
Provide the recorded RFU for the entries that follow.
Give the value in RFU but do not write RFU after it.

Suppose we examine the compound CC(=O)N[C@H]1[C@H](OCCN)O[C@H](COS(=O)(=O)O)[C@@H](O[C@@H]2O[C@H](CO)[C@H](O)[C@H](OS(=O)(=O)O)[C@H]2O)[C@@H]1O ; what RFU value has been reported?
266

Param item = CC(=O)N[C@H]1[C@H](OCCN)O[C@H](CO)[C@@H](O[C@@H]2O[C@H](CO)[C@H](O)[C@H](O[C@@H]3O[C@H](COS(=O)(=O)O)[C@@H](O)[C@H](O)[C@H]3NC(C)=O)[C@H]2O)[C@@H]1O ; retrieve measured RFU.
138

So what does the record say about RFU for CC(=O)N[C@H]1C(OCCCN)O[C@H](COS(=O)(=O)O)[C@@H](O[C@@H]2O[C@H](CO)[C@H](O)[C@H](OS(=O)(=O)O)[C@H]2O)[C@@H]1O[C@@H]1O[C@@H](C)[C@@H](O)[C@@H](O)[C@@H]1O (some centres unmarked) ?
403

Please look up its RFU: NCCCO[C@@H]1O[C@H](CO)[C@H](O)[C@H](OS(=O)(=O)O)[C@H]1O
345

# RFU lookup, item CC(=O)N[C@H]1C(OCCN)O[C@H](COS(=O)(=O)O)[C@@H](O)[C@@H]1O[C@@H]1O[C@H](COS(=O)(=O)O)[C@H](O)[C@H](O)[C@H]1O (some centres unmarked)
1773

----------
# Test system: mAb CSLEX
# experiment.notes: Glycan microarray analysis (Consortium for Functional Glycomics, printed array version 4.0), glycan binding of mAb CSLEX
# settings: mAb CSLEX at 50 μg/ml; average RFU of 6 replicates after removal of highest and lowest values
I'd appreciate it if you could supply RFU values for the items below.
Your answer is read as RFU, so omit the unit and give the number.

RFU for NCCCO[C@@H]1O[C@H](CO[C@@H]2O[C@H](CO)[C@@H](O)[C@H](O)[C@H]2O)[C@@H](O)[C@H](O)[C@H]1O ?
28

RFU for CC(=O)NC1C(O)CC(OC2C(O)C(COS(=O)(=O)O)OC(OC3C(CO)OC(OCCCN)C(NC(C)=O)C3OC3OC(C)C(O)C(O)C3O)C2O)(C(=O)O)OC1C(O)C(O)CO (stereo not shown) ?
22795

Find the recorded RFU belonging to CC(=O)N[C@H]1[C@H](OCCCN)O[C@H](CO)[C@@H](O[C@@H]2O[C@H](CO)[C@H](O[C@@H]3O[C@H](CO)[C@@H](O)[C@H](O)[C@H]3NC(C)=O)[C@H](O)[C@H]2O)[C@@H]1O and report it.
33

Find the recorded RFU belonging to CC(=O)N[C@H]1[C@H]([C@H](O)[C@H](O)CO)O[C@@](OC[C@H]2O[C@@H](O[C@H]3[C@H](O)[C@@H](O)[C@H](OCCN)O[C@@H]3CO)[C@H](O)[C@@H](O)[C@H]2O)(C(=O)O)C[C@@H]1O and report it.
45
